SYSTEM_TESTED: CYP2C19 (Homo sapiens (Human), UniProt P33261)
Sequence (P33261 whole entry): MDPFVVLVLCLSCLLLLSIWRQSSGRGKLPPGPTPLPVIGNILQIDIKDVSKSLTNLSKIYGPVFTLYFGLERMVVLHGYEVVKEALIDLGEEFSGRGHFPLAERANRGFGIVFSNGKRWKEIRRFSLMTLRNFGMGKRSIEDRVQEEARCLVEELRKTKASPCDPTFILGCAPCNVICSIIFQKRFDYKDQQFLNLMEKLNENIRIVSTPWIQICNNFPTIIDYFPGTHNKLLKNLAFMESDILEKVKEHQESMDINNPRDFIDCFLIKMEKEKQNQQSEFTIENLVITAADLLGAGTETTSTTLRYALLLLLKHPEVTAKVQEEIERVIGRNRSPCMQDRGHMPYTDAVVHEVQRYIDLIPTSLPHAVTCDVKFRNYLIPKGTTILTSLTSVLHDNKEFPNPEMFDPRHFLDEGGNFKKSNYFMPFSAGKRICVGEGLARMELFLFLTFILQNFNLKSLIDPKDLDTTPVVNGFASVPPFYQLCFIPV
EXPERIMENTAL_PROTOCOL: Human Cytochrome P450 Inhibition Assay (Bactosomes)
EXPERIMENTAL_PARAMETERS: recombinant Bactosomes, 10 minutes, 37° C.

| CHEMICAL_STRING | SYSTEM_TESTED | VALUE_PREFIX | IC50, µM |
| --- | --- | --- | --- |
| C[C@]1(O)CC[C@H](CS(=O)(=O)c2ccc(-c3ccc(F)cc3F)cc2C(F)(F)F)CC1 | CYP2C19 (Homo sapiens (Human), UniProt P33261) | > | 25 |
| C[C@]1(O)CC[C@@H](CS(=O)(=O)c2ccc(-c3ccc(C#N)cc3F)cc2C(F)(F)F)CC1 | CYP2C19 (Homo sapiens (Human), UniProt P33261) | > | 50 |
| C[C@]1(O)CC[C@@H](CS(=O)(=O)c2ccc(-c3ccc(Cl)cc3Cl)cc2)CC1 | CYP2C19 (Homo sapiens (Human), UniProt P33261) | = | 25 |
| C[C@]1(O)CC[C@@H](CS(=O)(=O)c2ccc(-c3ncc(F)cc3F)cc2C(F)(F)F)CC1 | CYP2C19 (Homo sapiens (Human), UniProt P33261) | = | 25 |
